Where do these numbers come from? They come from the supplement of paper PMC12042874.

PROTOCOL_DETAILS: amyloid nucleation score (Sup35N fusion, yeast selection) (log enrichment); library NNK2; higher = more nucleation; inactive = no reads after selection;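 also: zero at mode of non-aggregating sequences after 7 days selection at 30°C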
# amyloid nucleation score values compiled below
MEASUREMENT_LABEL: amyloid nucleation score

SUBSTANCE | MEASUREMENT_LABEL | READING
LLPMGYAYISYSLLGNYMSG | amyloid nucleation score | -1.37
YSTFSGH | amyloid nucleation score | 0.806
LYRTYLYTDYFTKMHV | amyloid nucleation score | -1.16
FDGHLINTFPRADASIAEDN | amyloid nucleation score | -0.454
ESGVWCKAPFYMSVTLSIHS | amyloid nucleation score | -0.487
FRFCHCLEFQVY | amyloid nucleation score | 0.126
GQVRSFCTGEG | amyloid nucleation score | -0.677
GTLWLGDAGRAEN | amyloid nucleation score | 0.589
CCGFGDEKDN | amyloid nucleation score | -0.206
KGDQKSTFCVRPFWESPNIV | amyloid nucleation score | -0.046
SEAYEGFSYSVLQYEP | amyloid nucleation score | -0.092
GPRSPAA | amyloid nucleation score | 0.613
VLDCRFKCCNFTRDLT | amyloid nucleation score | 7.67
GMGSSRGQRSTYYYGDLAYA | amyloid nucleation score | 0.96
GPVLGEFVEGSGNANGDEQV | amyloid nucleation score | -0.107
DFIMFLAGPNSVNYNVVLYF | amyloid nucleation score | 7.44
GDDDVVVDDQNLKCDGYTDL | amyloid nucleation score | 1.03
NPINRYCVAHEKLFRNVRSV | amyloid nucleation score | 1.87
CSTTWGDTIAGHEAGLVSLS | amyloid nucleation score | 1.02
AAPVMH | amyloid nucleation score | -0.354
YSNSGVTWLRMHNVMFCGEG | amyloid nucleation score | -0.122
PHLASPYHHPCNPQFLFPYL | amyloid nucleation score | 0.016
YHGFSQDCLNV | amyloid nucleation score | -0.042
DCIHCSRTNAADWMGYVFGY | amyloid nucleation score | 4.82
WFYLCMFGAYLWRVRFDIRK | amyloid nucleation score | -0.428
IVDHVYCIVILDLEHFFYNE | amyloid nucleation score | 5.02
ISVRPAQSASRPCLDLWLKA | amyloid nucleation score | 1.55
GFVYYSVMVFLMLAFPYLRH | amyloid nucleation score | -1.59
GDYSCVHQVRKIDM | amyloid nucleation score | 0.162
LKQTGQLRVMSN | amyloid nucleation score | 0.039
GGTSAAS | amyloid nucleation score | 1.01
IDGYIQGFHGIRLEQLGGVE | amyloid nucleation score | 0.152
GNTLGRFMVLHT | amyloid nucleation score | -0.199
SVSIPCNNCCRLLCRMFKLC | amyloid nucleation score | -0.716
SIRRTLVGQRAHEGKFWYGV | amyloid nucleation score | -0.504
AFVSSQVSTYYNFRTKDYSW | amyloid nucleation score | 3.68

----------
PROTOCOL_DETAILS: amyloid nucleation score (Sup35N fusion, yeast selection) (log enrichment); library NNK3; higher = more nucleation; inactive = no reads after selection

SEQUENCE_CODE | amyloid nucleation score
KMQCPNYACGCKDCVYTNFY | inactive
TFIFVLVSC | inactive
LNVSRGWLVNILPYGCNI | inactive
YWDCGLCVNEMGRFICCLGG | inactive
TSPGFYGWMSNSTSSNDIVA | inactive
ISVYHVLTHKL | 1.49
EFQNISWYTKLEGEYCGEMV | inactive
LWTYIWDRFEDPVECLRWWN | inactive
SYSHYFILHHLRDSELSHCS | inactive

----------
PROTOCOL_DETAILS: amyloid nucleation score (Sup35N fusion, yeast selection) (log enrichment); library NNK2; higher = more nucleation; inactive = no reads after selection
# amyloid nucleation score >= 0.5 gives YES, anything below gives NO

SUBSTANCE | CLASS_LABEL
WNCLICRYVNVCKLLCFYY | YES
LIGEVAYFICHFSKVVARLF | YES
LFKRGIVGDRGTKG | NO
DDSHLNCDNRIVISMLRNGN | YES
ILILVLIECLILWFCYTMCI | YES
LSMTKVLFCTFEITSLSLYQ | NO
FNGCFSCTMG | YES
LRFKNVWWPYGDYECATIIT | NO
YSYKFAAVSMIWVYPCEHTS | YES
QHAFRVHFTVRRVSSFFVR | YES
GCVRIMPCVFGSVRWHWYVW | YES
VYTWNGRSWEYWTCPTLRNP | NO
ELGVTNLDVDRHIDY | NO

----------
PROTOCOL_DETAILS: amyloid nucleation score (Sup35N fusion, yeast selection) (log enrichment); library NNK3; higher = more nucleation; inactive = no reads after selection
MEASUREMENT_LABEL: amyloid nucleation score

SUBSTANCE | READING
SVRYVETYSHRTNTVDAAFV | inactive
CFPTTSK | inactive
EVCNVVTCGNLFKVTIYNSQ | 2.43
QDIELMFSFFDGKAFSSYHL | -0.787
RLWLRKT | inactive
IYVRAFRWFMNKVTSTAWTI | inactive
KGHDAHVAVRVFTGGGLV | inactive
TTSVIAGLW | inactive
HLTVVSSKYITPSGTLMELH | 0.648
VSVLYYLKY | 0.132
MLLFHLVVQLNDLLSAPLRA | inactive
KQSLSMVWRKSDLALKVMVG | 0.904
INITLWWVTVEFNMSARVQI | inactive
LLHTTLA | inactive
ISCSKLTR | inactive
LDVSLVVVMPIGLRTEWMSG | inactive
FTMSYYKYLSHGRMRRGT | inactive
TLSFCWWRFMLVCRGVGGGR | inactive

----------
PROTOCOL_DETAILS: amyloid nucleation score (Sup35N fusion, yeast selection) (log enrichment); library NNK3; higher = more nucleation; inactive = no reads after selection

SUBSTANCE | amyloid nucleation score
CGDLMPNRYTLSSSNTMSNS | inactive
LKKVLPYGVRWTDITGPWVS | inactive
RTDYVISNVAMCNSLLC | 2.8
SRRVRAYIRVFGLCKGFAEC | inactive
DMIKCGLSPDRVFIWYWPNK | inactive
RFSIPMLQRCLWLTGPVCPI | inactive
RFRSRS | -0.02
NLVCQLLGRQRDPINPVVCW | inactive
KCIQWTGRDAYFEICYKQLD | 1.12
IFMLWPAD | inactive
RSRILMYYYKISLFYRIKVM | inactive
PCPFILFYSEFTWSRY | inactive
SSKFRRLLGVIMMADLMQVY | inactive
CDSLHNDAVYTSLGAWANHP | inactive
TGYPGPIKFRRIFYANYYSF | inactive
IKFIPYYCYPCRLIRLRVKC | inactive
KFNVFPIHGALWTCSVSAYH | inactive
CFAIYSLLYRVR | 1.55
LLCIFDSRCERLNVLAFRYV | inactive
GMRRFHNVRINVVSRWWFLE | 0.545
PWGEILINGR | inactive
WTIAVMVSVGKYMTGTAT | inactive
LALWFRGPLLLLSSLI | inactive
LVNIDLFNDYRAVCGLLTRD | inactive
ECEWDMVH | inactive
WCQCRKLFWVYAHGEHFSSC | 1.09
STMDSIYQFL | inactive
QFNMKVFMHDWWRLLLPKSK | inactive
IARKQPLLSMATTSSQVFRA | inactive
GGKAISNFEFLLILGPY | inactive
HSLHMGRKAMQYEYTQPAGI | inactive
SRGCRTTYRQEWECIQCLKW | inactive
TLGGEMQFVKMFCLLYFNCG | inactive
KVADSVIEFMLTCWGIRQDS | inactive
CHYRYISYVENFPCSERVSI | inactive
RVYVAWTTCSADKKNSNIMQ | 0.939

----------
PROTOCOL_DETAILS: amyloid nucleation score (Sup35N fusion, yeast selection) (log enrichment); library NNK3; higher = more nucleation; inactive = no reads after selection

SUBSTANCE | amyloid nucleation score
HFYYPLCWVCSVLLSHLVPD | inactive
ASLLLTYWVVTEVCRLDLGL | inactive
KRLVGLYIYTGMWLKLLQLV | inactive
FCVIMSM | inactive
LGAVCVQMKKIDLSKTLETR | inactive
YMGYWFKFFTFSGDQVTIGR | 0.718
NGSYIFPSNCYSKIAIVMVG | 0.706
LGWLVGSGKVNRVRPGSLNS | inactive
SSSTKGFVNVDKSLASW | inactive
TFIFDFAAFMNMVNGFSVLG | 2.23
MCQAIDSNTYWYLAHCGNSS | 0.494
GKFLVFAKVNVMVGCVLLFM | inactive
AGAVVDV | inactive
PGSASYSLVRGQDYYLTIYC | inactive
RLHTMWTYP | inactive
TPCYRFNSRYRMTFM | inactive
GNISGLNLVCEPIAVGSACE | -0.962

----------
amyloid nucleation score listing for selected substances.
PROTOCOL_DETAILS: amyloid nucleation score (Sup35N fusion, yeast selection) (log enrichment); library NNK1; higher = more nucleation; inactive = no reads after selection
MEASUREMENT_LABEL: amyloid nucleation score

SUBSTANCE | READING
RPAKLMAMPKILIGPH | 0.131
YDLLSLGDTTCRHSEILNRP | 0.924
SGSINENVKYSDTLVWLWKM | 4.92
VYMRISFNEVMCFVCDTGSW | 7.49
VLINYLKMSDTCNFRLFLFK | 5.92
HLRNLKDFNVQPF | 0.635
YMGELFTE | 2.45
FATAGKFVY | -1.23
FLDASVDKSLSYPGHIVAFR | -1.57
NCYSRDRSWGLDVVRYVVWW | -0.329
PCFSLLDSQRFVFGAKIILR | 0.093
QWCVKESAFIYEYRLSGDCR | 0.877
RDGIMYG | 0.505
FRTHVGSDCGL | -0.026
AAFTSSNYMFGFYFGLWVSN | 1.55
HVFCQRGCCERRLKIYISVS | -1.45
